target or test system: human Dopamine Transporter (Homo sapiens)
Construct: host or cells: CHO
Sequence (Q01959 whole entry): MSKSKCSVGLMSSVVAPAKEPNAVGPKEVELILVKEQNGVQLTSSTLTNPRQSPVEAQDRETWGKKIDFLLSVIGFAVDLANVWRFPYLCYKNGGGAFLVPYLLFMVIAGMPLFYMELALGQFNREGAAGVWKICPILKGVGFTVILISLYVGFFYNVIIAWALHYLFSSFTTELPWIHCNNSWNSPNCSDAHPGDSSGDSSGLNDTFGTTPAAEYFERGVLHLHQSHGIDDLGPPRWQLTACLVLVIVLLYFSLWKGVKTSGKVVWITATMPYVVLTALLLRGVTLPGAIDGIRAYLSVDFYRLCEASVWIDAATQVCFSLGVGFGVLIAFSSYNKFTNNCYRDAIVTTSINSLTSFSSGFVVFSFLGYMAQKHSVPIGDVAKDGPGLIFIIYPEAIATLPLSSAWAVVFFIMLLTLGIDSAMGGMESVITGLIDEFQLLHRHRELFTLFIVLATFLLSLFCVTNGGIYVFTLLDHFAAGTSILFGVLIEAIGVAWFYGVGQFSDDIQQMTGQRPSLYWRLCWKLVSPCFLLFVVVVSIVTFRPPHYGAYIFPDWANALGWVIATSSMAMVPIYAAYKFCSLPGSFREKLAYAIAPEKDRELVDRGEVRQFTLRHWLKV
test description: Human dopamine reuptake transporter (DAT) inhibition functional study, ASP+ uptake in CHO cells
Type: cell-based
condition summary: at 10,000 nM, 10 μM ASP+, 1 h, CHO cells stably expressing human DAT
Returns one of class 1 or class 0; class 1 when inhibition at 10 µM is >= 20%.

compound="C=CCC(N)(c1ccccc1)C1CCCC1 (centres unmarked)" cat="class 1"
compound="CC(N)(c1ccccc1)C1CCCCC1 (centres unmarked)" cat="class 0"
compound="C=CCCC(N)(c1ccccc1)C1CCCC1 (centres unmarked)" cat="class 0"
compound="CC(c1ccccc1)(C1CCCCC1)N1CCCCC1 (centres unmarked)" cat="class 1"
compound="CCC(C)NC(C)(c1ccccc1)C1CCCC1 (centres unmarked)" cat="class 1"

Quick check: does NC(c1ccccc1Cl)C1CCCC1 (centres unmarked) have inhibition at 10 µM greater than or equal to 20%?
class 0

inhibition at 10 µM >= 20% for CC(N)(c1ccccc1)C1CCCC1 (centres unmarked) ?
class 0

Test whether the compound NC(CC1CCC1)(c1ccccc1)C1CCCC1 (centres unmarked) records inhibition at 10 µM of 20% or higher.
class 0

Answer whether inhibition at 10 µM of CC(C)C(C)(N)c1ccccc1 (centres unmarked) is greater than or equal to 20%.
class 1

Quick check, inhibition at 10 µM >= 20%? CCNC(C)(c1ccccc1)C1CCCC1 (centres unmarked)
class 0

Could you verify whether the entry CC(NC1CCC1)(c1ccccc1)C1CCCC1 (centres unmarked) shows inhibition at 10 µM of no less than 20%?
class 1
